Entries and their change in vivo at 150 mg/kg values follow.
- System: pain threshold of inflamed and not inflamed paws of rats
- assay-info: Analgesic activity in rats (Randall-Selitto Method)
- Type: in vivo, rat (male Wister strain)
- run-conditions: Rattus norvegicus, po, 2 h, P.O. 150 mg/kg, inflamed paw, 2 hr., read-out: Analgesic Coefficient
Give just the number in %; leave the unit off.

// worked examples, change in vivo at 150 mg/kg included
compound	change in vivo at 150 mg/kg (%)
Cc1c(CC(=O)O)oc2ccc(Cc3ccccc3)cc12	24.7
Cc1c(CC(=O)O)oc2ccc(F)cc12	23.5
Cc1c(CC(=O)O)oc2ccccc12	5.9
CC(C)Cc1ccc(C(C)C(=O)O)cc1 (stereo not shown) [Ibuprofen, reference compound]	28.8
Cc1c(CC(=O)O)oc2ccc(C3CCCCC3)cc12	2
Cc1ccc2oc(CC(=O)O)c(C)c2c1	18.8
COc1ccc2oc(CC(=O)O)c(C)c2c1	5.2
Cc1c(CC(=O)O)oc2ccc(C(C)(C)C)cc12	17.8

Prompt: Return value of change in vivo at 150 mg/kg for input "Cc1c(CC(=O)O)oc2ccc(-c3ccccc3)cc12" , no commentary.
Response: 23.3

Prompt: Please indicate change in vivo at 150 mg/kg recorded for "Cc1c(CC(=O)O)oc2ccc(Cl)cc12"
Response: 17.8

----------
- Tested on: acetic acid-induced writhing reactions in mice
- assay-info: Analgesic activity in mice (AcOH Writhing Method)
- Assay type: in vivo, mouse (male dd-strain)
- run-conditions: mouse, oral, 150 mg/kg, 1 h before acetic acid; read-out: Analgesic Effect (AcOH Writhing Method), Suppression Ratio
Use 30% as the dividing line for inhibition in vivo at 150 mg/kg, with the line itself on the criterion met side and lower values as criterion not met.

The examples below pair each entry with its known result.
compound	answer-label
Cc1c(CC(=O)O)oc2ccc(C(C)(C)C)cc12	criterion not met
Cc1c(CC(=O)O)oc2ccc(Cl)cc12	criterion met

Prompt: Say whether "Cc1c(CC(=O)O)oc2ccc(-c3ccccc3)cc12" shows inhibition in vivo at 150 mg/kg of 30% or more.
Response: criterion not met

Prompt: Is inhibition in vivo at 150 mg/kg for "Cc1c(CC(=O)O)oc2ccccc12" at or above 30%?
Response: criterion met

Prompt: Tell me whether inhibition in vivo at 150 mg/kg is at least 30% here: CC(C)Cc1ccc(C(C)C(=O)O)cc1 (stereo not drawn) [Ibuprofen, reference compound]
Response: criterion met

Prompt: Please indicate if the recorded inhibition in vivo at 150 mg/kg for "Cc1ccc2oc(CC(=O)O)c(C)c2c1" meets or exceeds 30%.
Response: criterion not met

Prompt: Test whether the compound "COc1ccc2oc(CC(=O)O)c(C)c2c1" records inhibition in vivo at 150 mg/kg of 30% or higher.
Response: criterion not met

Prompt: Is reported inhibition in vivo at 150 mg/kg greater than or equal to 30% here: "Cc1c(CC(=O)O)oc2ccc(F)cc12"
Response: criterion not met

----------
- Test system: carrageenin-induced edema on the hind paw of rats
- assay-info: Anti-edema effect on carrageenin-induced edema on the hind paw of rats (Carrageenin Edema Method)
- Format: in vivo, rat (male Wistar strain)
- run-conditions: rat, oral, 3 hours after carrageenin
value-kind: ED50
Quick note: unit goes after the number.

Below, each entry is followed by its recorded ED50 result.
smi	value-kind	assay-value
Cc1c(CC(=O)O)oc2ccc(-c3ccccc3)cc12	ED50	70 mg/kg
Cc1c(CC(=O)O)oc2ccc(F)cc12	ED50	105 mg/kg
Cc1ccc2oc(CC(=O)O)c(C)c2c1	ED50	100 mg/kg
Cc1c(CC(=O)O)oc2ccc(Cl)cc12	ED50	980 mg/kg
Cc1c(CC(=O)O)oc2ccccc12	ED50	240 mg/kg

Prompt: // Input: "COc1ccc2oc(CC(=O)O)c(C)c2c1" . Output its ED50 only.
Response: 110 mg/kg

----------
- assay-info: in vivo
- run-conditions: rat, oral, observed one week, Litchfield and Wilcoxon, read-out: Acute Toxicity (P.O.), LD50, Rat
Listing: LD50 at 168 h of selected molecules

smi	LD50 at 168 h
Cc1c(CC(=O)O)oc2ccccc12	> 300 mg/kg
Cc1c(CC(=O)O)oc2ccc(Cl)cc12	425 mg/kg
Cc1c(CC(=O)O)oc2ccc(C3CCCCC3)cc12	> 150 mg/kg
Cc1c(CC(=O)O)oc2ccc(C(C)(C)C)cc12	> 300 mg/kg
Cc1ccc2oc(CC(=O)O)c(C)c2c1	> 1000 mg/kg
COc1ccc2oc(CC(=O)O)c(C)c2c1	> 1000 mg/kg
Cc1c(CC(=O)O)oc2ccc(F)cc12	> 1000 mg/kg
Cc1c(CC(=O)O)oc2ccc(-c3ccccc3)cc12	> 300 mg/kg

# ---- query molecule ----
Prompt: Retrieve LD50 at 168 h measured for "Cc1c(CC(=O)O)oc2ccc(Cc3ccccc3)cc12" and print it.
Response: > 300 mg/kg

----------
Reported TD50 at 20 h by item:
- assay-info: in vivo
- run-conditions: rat, po
- Protocol: A test group consisting of 10-15 rats (male Wistar strain; weight: 180-220 g) was used in this test. Each rat was fasted for 20 hours, but water was allowed ad libitum. The compounds shown in Table 5 were administered orally. […] After about 2 hours, the stomach was opened along the greater curvature and the length of lesions (dark blue areas against pale blue background) in the glandular portion was measured under a dissecting microscope (10×) provided with a square grid. […]

In the examples that follow, each entry is paired with its recorded TD50 at 20 h.
smi	value-kind	assay-value
Cc1c(CC(=O)O)oc2ccc(F)cc12	TD50 at 20 h	> 300 mg/kg
COc1ccc2oc(CC(=O)O)c(C)c2c1	TD50 at 20 h	> 300 mg/kg

Prompt: Read off the recorded TD50 at 20 h for "Cc1ccc2oc(CC(=O)O)c(C)c2c1"
Response: > 300 mg/kg

----------
- assay-info: in vivo
- run-conditions: mouse, oral, observed one week, Litchfield and Wilcoxon, read-out: Acute Toxicity (P.O.), LD50, Mouse
compounds and their reported LD50 at 168 h

smi	LD50 at 168 h
Cc1c(CC(=O)O)oc2ccccc12	> 1100 mg/kg
Cc1c(CC(=O)O)oc2ccc(-c3ccccc3)cc12	500 to 1000 mg/kg
Cc1c(CC(=O)O)oc2ccc(C3CCCCC3)cc12	> 1000 mg/kg
Cc1c(CC(=O)O)oc2ccc(C(C)(C)C)cc12	> 1000 mg/kg

Prompt: Recall and state the measured LD50 at 168 h for "Cc1c(CC(=O)O)oc2ccc(Cc3ccccc3)cc12" .
Response: 500 to 1000 mg/kg

Measured values drawn from patent US4172145A for this set.
